target: Full length LIGHT R195A on HEK293FF cells (Homo sapiens (Human), UniProt O43557 1-240); assay: flow cytometry, HEK293FF, mAb at EC50
Sequence (O43557 whole entry R195A): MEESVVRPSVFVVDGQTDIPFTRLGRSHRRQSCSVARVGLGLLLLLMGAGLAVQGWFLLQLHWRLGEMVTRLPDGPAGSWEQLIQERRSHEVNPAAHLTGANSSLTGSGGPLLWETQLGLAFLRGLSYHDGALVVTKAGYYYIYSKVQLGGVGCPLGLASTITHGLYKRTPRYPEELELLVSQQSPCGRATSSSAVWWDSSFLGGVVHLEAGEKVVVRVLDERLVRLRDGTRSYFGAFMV
Readout kind: % of WT binding (%)
Answer in %, number only, no unit symbol.

For orientation, consider the following solved cases.
2E08 chimeric IgG4 mAb (antibody, V domains shown, Chimeric human IgG4 (S-to-P, L-to-E) with human CL, as m1; also called Parental 2E08) VH: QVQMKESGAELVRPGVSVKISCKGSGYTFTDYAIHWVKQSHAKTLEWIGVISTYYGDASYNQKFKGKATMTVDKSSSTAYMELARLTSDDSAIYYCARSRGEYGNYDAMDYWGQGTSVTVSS VL: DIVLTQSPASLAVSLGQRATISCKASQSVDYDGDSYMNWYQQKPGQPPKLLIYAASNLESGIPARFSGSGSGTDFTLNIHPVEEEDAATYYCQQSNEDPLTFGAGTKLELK
43
3D12 chimeric IgG4 mAb (antibody, V domains shown, Chimeric human IgG4 (S-to-P, L-to-E) with human CL, as m1; also called Parental 3D12; 03D12) VH: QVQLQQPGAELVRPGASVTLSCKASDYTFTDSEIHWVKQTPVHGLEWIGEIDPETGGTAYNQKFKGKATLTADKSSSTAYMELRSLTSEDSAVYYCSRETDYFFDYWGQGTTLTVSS VL: DIQMTQSPASLSASVGETVTITCGASENIYGALNWYQRKQGKSPQLLIYGATNLADGMSSRFSGSGSGRQYSLKISSLHPDDVATYYCQNVLSTPWTFGGGTKLEIK
25
3C10 chimeric IgG4 mAb (antibody, V domains shown, Chimeric human IgG4 (S-to-P, L-to-E) with human CL, as m1; also called Parental 3C10) VH: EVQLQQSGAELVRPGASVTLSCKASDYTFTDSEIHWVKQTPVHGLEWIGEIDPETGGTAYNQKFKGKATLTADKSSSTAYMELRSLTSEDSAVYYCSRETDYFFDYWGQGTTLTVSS VL: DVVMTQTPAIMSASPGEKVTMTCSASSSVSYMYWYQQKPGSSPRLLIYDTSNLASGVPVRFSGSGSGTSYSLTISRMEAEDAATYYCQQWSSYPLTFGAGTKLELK
6

Ask: Report measured % of WT binding; entry is 3A07 chimeric IgG4 mAb (antibody, V domains shown, Chimeric human IgG4 (S-to-P, L-to-E) with human CL, as m1; also called Parental 3A07) VH: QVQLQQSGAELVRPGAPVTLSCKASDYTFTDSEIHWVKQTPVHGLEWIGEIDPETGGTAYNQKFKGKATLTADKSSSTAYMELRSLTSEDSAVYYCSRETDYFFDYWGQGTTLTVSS VL: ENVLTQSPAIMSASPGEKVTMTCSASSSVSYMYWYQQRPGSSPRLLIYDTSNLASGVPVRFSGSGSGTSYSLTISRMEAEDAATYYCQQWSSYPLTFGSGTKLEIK
Reply: 15
